target: CDK9/cyclin T1 (Homo sapiens, UniProt P50750); assay: Inhibition of CDK9/cyclin T1 (unknown origin) assessed as inhibition constant incubated for 30 to 60 mins presence of dithiothreitol by Cheng-Prusoff equation analysis
Sequence (O60563 whole entry): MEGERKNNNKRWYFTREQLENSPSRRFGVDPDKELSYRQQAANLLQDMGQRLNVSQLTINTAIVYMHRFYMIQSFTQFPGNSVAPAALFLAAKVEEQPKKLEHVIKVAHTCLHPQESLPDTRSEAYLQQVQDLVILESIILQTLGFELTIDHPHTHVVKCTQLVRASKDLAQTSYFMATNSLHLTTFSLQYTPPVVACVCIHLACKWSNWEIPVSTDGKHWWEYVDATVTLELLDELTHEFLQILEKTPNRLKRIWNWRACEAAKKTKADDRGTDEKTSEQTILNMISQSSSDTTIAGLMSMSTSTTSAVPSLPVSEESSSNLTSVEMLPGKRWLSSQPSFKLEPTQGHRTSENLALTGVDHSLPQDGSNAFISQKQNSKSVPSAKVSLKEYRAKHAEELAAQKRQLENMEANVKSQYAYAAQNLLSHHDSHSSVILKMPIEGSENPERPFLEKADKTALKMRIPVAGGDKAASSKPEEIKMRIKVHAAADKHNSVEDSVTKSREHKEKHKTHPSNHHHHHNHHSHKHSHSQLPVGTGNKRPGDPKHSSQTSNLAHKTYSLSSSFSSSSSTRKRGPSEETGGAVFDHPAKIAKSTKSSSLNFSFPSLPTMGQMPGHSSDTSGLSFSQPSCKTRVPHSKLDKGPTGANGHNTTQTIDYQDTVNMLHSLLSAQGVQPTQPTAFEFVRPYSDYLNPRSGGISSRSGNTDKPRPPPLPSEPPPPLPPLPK
Sequence (P50750 whole entry): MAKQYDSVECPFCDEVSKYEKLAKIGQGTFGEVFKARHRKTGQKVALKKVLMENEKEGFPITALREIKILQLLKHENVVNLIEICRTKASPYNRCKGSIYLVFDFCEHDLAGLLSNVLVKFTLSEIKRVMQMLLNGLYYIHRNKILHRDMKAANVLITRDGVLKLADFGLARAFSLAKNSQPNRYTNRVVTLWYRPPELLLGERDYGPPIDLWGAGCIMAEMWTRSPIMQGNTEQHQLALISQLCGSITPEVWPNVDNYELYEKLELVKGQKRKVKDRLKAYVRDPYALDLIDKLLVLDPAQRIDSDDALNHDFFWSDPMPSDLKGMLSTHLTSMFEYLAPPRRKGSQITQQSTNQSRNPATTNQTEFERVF
// reported Ki per item

>  <Structure As Smiles>
Cn1cc(-c2nc(Nc3cccc(S(N)(=O)=O)c3)ncc2F)cn1

>  <Ki>
26 nM

$$$$

For record `Cn1cc(-c2nc(Nc3ccc(S(C)(=O)=O)cc3)ncc2Cl)cn1` the listed Ki is 229 nM

For record `Cn1cc(-c2nc(Nc3ccc(S(N)(=O)=O)cc3)ncc2Cl)cn1` the listed Ki is 17 nM

For record `Cn1cc(-c2nc(Nc3cccc([N+](=O)[O-])c3)ncc2F)cn1` the listed Ki is 147 nM

For record `Cn1cc(-c2nc(Nc3cccc(S(N)(=O)=O)c3)ncc2Cl)cn1` the listed Ki is 301 nM

For record `Cn1cc(-c2nc(Nc3ccc(S(N)(=O)=O)cc3)ncc2F)cn1` the listed Ki is 271 nM
